Molecular target: Bile acid receptor (Homo sapiens)
Assay: qHTS assay to identify small molecule antagonists of the farnesoid-X-receptor (FXR) signaling pathway (AID 743217)
Conditions: HEK293T FXR-UAS-bla, beta-lactamase ratio, CDCA-stimulated, 16 h; series mostly up to 62.6 µM
Records with an inconclusive call do not appear. Active and inactive are the calls of the source. Calls follow the shape of the dose curve; as a rule, active = well fitted inhibition curve with a large enough effect in the signal ratio in the repeat runs (not every such curve was filed as active); inconclusive = weak or mixed curves, or effect the other way; inactive = no such curve, though single readings can be large or run the other way; the % refers to the signal ratio.
Log the outcome using a class from active, inactive

Solved cases (3 shown):
> print(dat)
                                   compound  class.label
1    CC(CCO)CCc1ccccc1 (stereo unspecified)     inactive
2  CC(C)(C)C(=O)C(Oc1ccc(Cl)cc1)n1ccnc1 (stereo unspecified)     inactive
3        Cc1cc2nc3ccc(=[N+](C)C)cc-3sc2cc1N       active

Query string: Could you kindly confirm the outcome this assay logged for CC(=O)Oc1ccc2c(c1)CC[C@@H]1[C@@H]2CC[C@]2(C)[C@@H](O)CC[C@@H]12 ?
Result string: active

Query string: Quick one: Cc1nc2ccccn2c(=O)c1CCN1CCC(C(=O)c2ccc(F)cc2)CC1
Result string: inactive

Query string: Another compound to look at: CCOC(=O)C(C)Oc1ccc(Oc2nc3ccc(Cl)cc3o2)cc1 (stereo unspecified)
Result string: inactive

Query string: Follow-up entry: CCCCCC=CCC=CCCCCCCCC(=O)OCC
Result string: inactive

###

Test: qHTS assay to identify small molecule antagonists of the thyroid receptor (TR) signaling pathway (AID 743065); also: nearly all actives have a fitted effect of over 55% in size; also: potency is read from the fitted curve at half-maximal effect
Conditions: GH3.TRE-Luc, T3-stimulated luciferase inhibition, 23.5 h; series mostly up to 70.3 µM
Inconclusive results are not listed. Activity calls are given as the source filed them. Calls come from the whole dose curve; as a rule, active = well fitted inhibition curve with a large enough effect in the repeat runs; inconclusive = weak or mixed curves; inactive = no such curve, though single readings can be large or run the other way.
measurement.kind: Potency

Illustrative cases are given below, each with its answer.
> print(dat)
                                   compound               val
1  Cc1ccccc1N1C(=O)c2cc(S(N)(=O)=O)c(Cl)cc2NC1C (configuration not stated)          inactive
2  CC(=O)OCC(=O)[C@H]1CC[C@H]2[C@@H]3CCC4=CC(=O)CC[C@]4(C)[C@H]3CC[C@]12C  13.3 µM (active)
3                O=C(CCCCCCCCC#CI)Oc1ccccc1  13.3 µM (active)
4   CC(C)OCC1CO1 (configuration not stated)          inactive
5  CC(CCc1ccc2c(c1)OCO2)NN (configuration not stated)          inactive
6                     Cc1cc(O)c(C(C)C)cc1Cl          inactive

# evaluate next
Query string: Reported Potency for COC(=O)Nc1nc2ccc(C(=O)c3cccs3)cc2[nH]1 : what is it?
Result string: 0.237 µM (active)

###

Assay: qHTS assay to identify aromatase inhibitors - cell viability counter screen (AID 743084);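 also: cells stimulated with testosterone during compound exposure; nearly all actives have a fitted effect of over 55% in size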
Settings: MCF-7 aro ERE viability, CellTiter-Fluor, 24 h; series mostly up to 70.3 µM
Results filed as inconclusive are left out. The source made the active and inactive calls. The call rests on the fitted dose curve; in most records, active means well fitted cell-killing curve with a large enough effect in the repeat runs; inconclusive means weak or mixed curves, or effect the other way; inactive means no such curve, though single readings can be large or run the other way.
Pick one and only one: active, inactive

Worked set:
> print(dat)
                                   compound  class.label
1                              OCCSc1ccccc1     inactive
2  CO[C@H]1O[C@H](CO)[C@@H](O)[C@H](O)[C@H]1O     inactive
3      Cc1ccc(/C=N/n2c(-c3ccccc3)csc2=S)cc1     inactive
4             O=S(=O)(c1ccccc1)c1ccc(Cl)cc1     inactive
5                    CN1CCCN=C1/C=C/c1cccs1     inactive

Query string: What classification did CCCOC(=O)c1ccc(C(=O)OCCC)nc1 end up with in this test?
Result string: inactive

Query string: Item: C=CC(C)=CCC=C(C)C
Result string: inactive

Query string: Also, CNC(=S)NC please.
Result string: inactive

Query string: What about this compound? N#C[C@@H]1C[C@@H]2C[C@@H]2N1C(=O)[C@@H](N)C12CC3CC(CC(O)(C3)C1)C2
Result string: inactive

Query string: Also check CCCOc1ccc(S(=O)(=O)N2CCN(CC)CC2)cc1-c1nc2c(CC)n(Cc3ccccn3)nc2c(=O)[nH]1
Result string: inactive

Query string: Check CCCc1c(OCCCOc2ccc(OCC(=O)O)cc2)ccc(C(C)=O)c1O too.
Result string: inactive

###

Biological target: Nuclear receptor subfamily 1 group I member 2 (Homo sapiens)
Assay: Human pregnane X receptor (PXR) small molecule agonists, qHTS assay (AID 1346982); also: nearly all actives have a fitted effect of over 35% in size
Conditions: PXR-Luc HepG2, CYP3A4 luciferase reporter, 24 h; series mostly up to 92.4 µM
Results filed as inconclusive are left out. The source made the active and inactive calls. Calls come from the whole dose curve; as a rule, active = well fitted activation curve with a large enough effect in the repeat runs; inconclusive = weak or mixed curves; inactive = no such curve, though single readings can be large or run the other way.
// allowed return values: active, inactive

// below: answered compounds
> print(dat)
                                   compound  class.label
1                                CCCOCCOCCO     inactive
2  CCCOc1ccc(S(=O)(=O)N2CCN(CC)CC2)cc1-c1nc2c(CC)n(Cc3ccccn3)nc2c(=O)[nH]1       active
3                    CCCCC/C(=C\c1ccccc1)CO     inactive
4  COc1ccc([C@@H]2Sc3ccccc3NC(=O)[C@@H]2O)cc1     inactive
5  Cc1nccn1-c1ccc(Sc2cccc(C3(C(N)=O)CCOCC3)c2)cc1       active

Query string: Check the results log: what was the call for Nc1ccc(S(=O)(=O)O)c(N)c1 ?
Result string: inactive

Query string: // same read-out, input: c1ccc(COCc2ccccc2)cc1
Result string: inactive

Query string: Moving on to ON(Cc1ccccc1)Cc1ccccc1
Result string: active

Query string: Same again, this time with Cc1cc(S(=O)(=O)O)ccc1N=Nc1c(O)ccc2ccccc12
Result string: inactive

Query string: Subsequent entry: CCCCC(CC)COC(=O)COc1ccc(Cl)cc1C (configuration not stated)
Result string: inactive

Query string: Again, but for C/C=C/C=C/CCCCCCCO
Result string: active

Query string: What about this compound? Cc1cc(C(=C2C=CC(=Nc3ccc(S(=O)(=O)O)cc3S(=O)(=O)O)C=C2)c2ccc(Nc3ccc(S(=O)(=O)O)cc3)cc2)ccc1N
Result string: inactive

###

Assay: A CellTox Green Cytotoxicity Assay to monitor cytotoxicity in HEK293 cells - 40 hour (AID 1224871); also: nearly all actives have a fitted effect of over 45% in size
Conditions: CellTox Green fluorescence; series mostly up to 76.8 µM
Results filed as inconclusive are left out. Activity calls are given as the source filed them. Calls come from the whole dose curve; as a rule, active = well fitted activation curve with a large enough effect in the repeat runs; inconclusive = weak or mixed curves; inactive = flat fitted curve, though single readings scatter.
Write down one outcome, taken from T = active, F = inactive

molecule	class.label
CO[C@H]1C=CO[C@@]2(C)Oc3c(C)c(O)c4c(O)c(c5c(c4c3C2=O)=NC2(CCN(CC(C)C)CC2)N=5)NC(=O)/C(C)=C\C=C/[C@H](C)[C@H](O)[C@@H](C)[C@@H](O)[C@@H](C)[C@H](OC(C)=O)[C@@H]1C	F
CCCCC(=O)O[C@]1(C(=O)CO)CC[C@H]2[C@@H]3CCC4=CC(=O)CC[C@]4(C)[C@H]3[C@@H](O)C[C@@]21C	F

Query string: Name the outcome recorded for CO[C@H]1O[C@H](CO)[C@@H](O)[C@H](O)[C@H]1O in the assay.
Result string: F

Query string: Next molecule up: C=C(C)C(=O)OCCOC(=O)CC(C)=O
Result string: F

Query string: Would you kindly repeat that for CC(C)OCC1CO1 (stereo not given) ?
Result string: F

Query string: What do you have for COCCOC(=O)C1=C(C)NC(C)=C(C(=O)OC/C=C/c2ccccc2)C1c1cccc([N+](=O)[O-])c1 (stereo not given) ?
Result string: F

Query string: Queued: CN1Cc2cc(C(=O)N3CCC(C4CCNCC4)CC3)ccc2N[C@@H](CC(=O)O)C1=O
Result string: F

###

Assay: qHTS RealTime-Glo MT Cell Viability Assay in HEK293 cells - 32 hour (AID 1224868); also: nearly all actives have a fitted effect of over 50% in size; also: potency is read from the fitted curve at half-maximal effect
Conditions: RealTime-Glo luminescence; series mostly up to 76.8 µM
Records with an inconclusive call do not appear. The source made the active and inactive calls. The call rests on the fitted dose curve; in most records, active means well fitted cell-killing curve with a large enough effect in the repeat runs; inconclusive means weak or mixed curves, or effect the other way; inactive means flat fitted curve, though single readings scatter.
measurement.kind: Potency

For orientation, consider the following solved cases.
> print(dat)
                                   molecule  measurement.kind               val
1  CCCC1C(CC)=CC(CC)=CN1c1ccccc1 (stereo not drawn)           Potency  13.8 µM (active)
2                    CCC(=O)OC/C=C/c1ccccc1           Potency          inactive
3  CCc1nn(CCCN2CCN(c3cccc(Cl)c3)CC2)c(=O)n1CCOc1ccccc1           Potency  8.49 µM (active)
4  CC1=C(/C=C/C(C)=C\C=C\C(C)=C\C(=O)O)C(C)(C)CCC1           Potency          inactive
5                O=C(C(=O)c1ccccc1)c1ccccc1           Potency          inactive

Query string: Reported Potency, molecule COC(OC)(C(=O)c1ccccc1)c1ccccc1 : ____
Result string: inactive

Query string: Follow-up item: COC(=O)c1cc(Cl)ccc1NS(=O)(=O)C(F)(F)F
Result string: inactive
